- TEST DETAILS: qHTS of pediatric cancer cell lines to identify multiple opportunities for drug repurposing: Confirmatory screen for MG 63 (6-TG R) cells (AID 1347119); note: nearly all actives have a fitted effect of over 55% in size
- EXPERIMENTAL PARAMETERS: MG-63 (6-TG resistant) osteosarcoma viability; series mostly up to 45.9 µM
Inconclusive results are not listed. Activity calls are given as the source filed them. Calls come from the whole dose curve; as a rule, active = well fitted cell-killing curve with a large enough effect; inconclusive = small, poorly fitted or top-dose-only effect, or effect the other way; inactive = no such curve, though single readings can be large or run the other way.
Bench note: report the call from TRUE for active, FALSE for inactive

COc1cc2c(cc1OC)[C@@H]1C(=O)c3ccc4c(c3O[C@@H]1CO2)C=CC(C)(C)O4    TRUE

Just curious, what result did Oc1ccc(-c2ccc(-c3cc(Nc4cccc(CNC5CC5)c4)n[nH]3)cc2)c(O)c1 get here?
FALSE

Just curious, what result did CC[C@@]1([C@@H]2O[C@@H]([C@H]3O[C@@](O)(CO)[C@H](C)C[C@H]3C)C[C@H]2C)CC[C@H]([C@]2(C)CC[C@]3(C[C@H](O)[C@@H](C)[C@@H]([C@@H](C)[C@@H](OC)[C@H](C)C(=O)O)O3)O2)O1 get here?
TRUE

Just curious, what result did O=C(NC1CC1)c1cccc(-c2ccc3c(NC(=O)C4CC4)n[nH]c3c2)c1 get here?
TRUE

Just curious, what result did Cc1cc(Nc2ncc3c(n2)N(C)C(=O)N(c2cc(NC(=O)c4cccc(C(F)(F)F)c4)ccc2C)C3)n(C)n1 get here?
TRUE

Just curious, what result did O=C(C=CC=Cc1ccc2c(c1)OCO2)N1CCCCC1 get here?
FALSE

Just curious, what result did COc1cccc2c1C(=O)c1c(O)c3c(c(O)c1C2=O)C[C@@](O)(C(C)=O)C[C@H]3O[C@H]1C[C@H](N)[C@H](O)[C@H](C)O1 get here?
TRUE

Just curious, what result did NC(=O)Nc1cc(-c2ccc(CN3CCOCC3)cc2)sc1C(N)=O get here?
TRUE
